measured.on: FXR (Homo sapiens (Human), UniProt Q96RI1)
Sequence (Q96RI1 262-486): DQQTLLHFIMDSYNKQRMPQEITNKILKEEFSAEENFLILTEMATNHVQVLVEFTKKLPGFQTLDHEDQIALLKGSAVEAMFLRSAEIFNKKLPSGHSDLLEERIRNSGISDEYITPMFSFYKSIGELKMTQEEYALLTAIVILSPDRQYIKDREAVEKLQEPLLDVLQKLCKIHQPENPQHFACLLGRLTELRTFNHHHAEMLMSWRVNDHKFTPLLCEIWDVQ
measurement.protocol: FXR EC50 (FXR agonist activity reported with each example)
Format: cell-based
Consider the following compounds; for each one, report its pEC50.
Just the number, please; pEC50 means minus log10 of the concentration in mol/L.

Query for FXR (Homo sapiens (Human), UniProt Q96RI1): what pEC50 does the record show for COc1c(C(=O)O)cccc1-c1noc(C23CCC(OCc4c(-c5c(Cl)cncc5Cl)noc4C4CC4)(CC2)CC3)n1 [Example 237] ?
7.57

Query for FXR (Homo sapiens (Human), UniProt Q96RI1): what pEC50 does the record show for N#CC12CCC(OCc3c(-c4c(Cl)cccc4Cl)noc3C3CC3)(CC1)CC2 [Intermediate 70A] ?
6.33

Query for FXR (Homo sapiens (Human), UniProt Q96RI1): what pEC50 does the record show for O=C(O)c1cccc(-c2nc(C34CCC(OCc5c(-c6ccccc6C(F)(F)F)noc5C5CC5)(CC3)CC4)no2)n1 [Example 23] ?
5.55

Query for FXR (Homo sapiens (Human), UniProt Q96RI1): what pEC50 does the record show for COC(=O)c1cccc(-c2noc(C34CCC(C=Cc5c(-c6c(Cl)cccc6Cl)noc5C5CC5)(CC3)CC4)n2)c1 [Intermediate 159F] ?
5.34

Query for FXR (Homo sapiens (Human), UniProt Q96RI1): what pEC50 does the record show for O=C(O)c1ccccc1CNC(=O)C12CCC(OCc3c(-c4c(Cl)cccc4Cl)noc3C3CC3)(CC1)CC2 [Example 142] ?
5.89

Query for FXR (Homo sapiens (Human), UniProt Q96RI1): what pEC50 does the record show for O=C(O)c1cc(C(F)(F)F)cc(C23CCC(COCc4c(-c5c(Cl)cncc5Cl)noc4C4CC4)(CC2)CO3)c1 [Example 490] ?
7.02

Query for FXR (Homo sapiens (Human), UniProt Q96RI1): what pEC50 does the record show for O=C(O)[C@@H]1CCC[C@H](OCC23CCC(OCc4c(-c5ccccc5OC(F)(F)F)noc4C4CC4)(CC2)CC3)C1 [Example 81] ?
5.33

Query for FXR (Homo sapiens (Human), UniProt Q96RI1): what pEC50 does the record show for O=C(O)c1cc(OC(F)F)c2cc(OCC34CCC(OCc5c(-c6c(Cl)cncc6Cl)noc5C5CC5)(CC3)CC4)ccc2n1 [Example 284] ?
8.10

Query for FXR (Homo sapiens (Human), UniProt Q96RI1): what pEC50 does the record show for COc1cc(C#CC23CCC(OCc4c(-c5c(Cl)cncc5Cl)noc4C4CC4)(CC2)CC3)cc(C(=O)O)c1 [Example 380] ?
7.62

Query for FXR (Homo sapiens (Human), UniProt Q96RI1): what pEC50 does the record show for OCc1noc(C23CCC(OCc4c(-c5c(Cl)cccc5Cl)noc4C4CC4)(CC2)CC3)n1 [Example 73] ?
6.22

Query for FXR (Homo sapiens (Human), UniProt Q96RI1): what pEC50 does the record show for O=C(O)c1cc(F)cc(-c2noc(C34CCC(OCc5c(-c6c(Cl)cncc6Cl)noc5C5CC5)(CC3)CC4)n2)c1 [Example 458] ?
7.07

Query for FXR (Homo sapiens (Human), UniProt Q96RI1): what pEC50 does the record show for O=C(O)c1cnc(N2CC(F)C2)c(C#CC23CCC(OCc4c(-c5c(Cl)cncc5Cl)noc4C4CC4)(CC2)CC3)c1 [Example 523] ?
7.62
